# protocol-description: in vitro
# test-conditions: human, mit-2 lymphoblasts
measured-attribute: viability at 24 h (%)
Reply numerically in %, unit not repeated.

Asked: I have this compound here, CCOS(C)(=O)=O [EMS, ethyl methane sulphonate] , and I need its recorded viability at 24 h.
Given back: 0.12

Asked: How about "CN(N=O)C(N)=O" ?
Given back: 0.1
